All figures here come from PubChem BioAssay AID1963832.

# System: 885724-159-R-J1-PDC complex spheroid viability;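 note: spheroids exposed to compounds for 7 days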
# measurement.notes: Anticancer human tumor 885724-159-R-J1-PDC patient-derived pancreatic adenocarcinoma cell line growth inhibition [POLQ]
# experimental.context: second compound 3.16 µM; first compound 0.0316 µM; active compounds read low
Measured viability, T/C of individual entries
Answer in %, number only, no unit symbol.

Solved cases below.
COc1cc2cc(C(=O)CCC(=O)O)sc2cc1OC + Nc1ccc(C#CCN(C(=O)Cc2ncc(C(F)(F)F)cc2C(F)(F)F)c2ccc(F)cc2)nn1 : 91.1
COc1cc(C2c3cc4c(cc3C(OC3OC5COC(C)OC5C(O)C3O)C3COC(=O)C23)OCO4)cc(OC)c1O (stereo not given) + COC1C(OC(N)=O)C(O)C(Oc2ccc3c(O)c(NC(=O)c4ccc(O)c(CC=C(C)C)c4)c(=O)oc3c2C)OC1(C)C : 92.5
C=CCn1c(=O)c2cnc(Nc3ccc(N4CCN(C)CC4)cc3)nc2n1-c1cccc(C(C)(C)O)n1 + Nc1ccc(C#CCN(C(=O)Cc2ncc(C(F)(F)F)cc2C(F)(F)F)c2ccc(F)cc2)nn1 : 88.2

Ask | Which viability, T/C reading was recorded for the compound C#Cc1c(F)ccc2cc(O)cc(-c3ncc4c(N5CC6CCC(C5)N6)nc(OCC56CCCN5CC(F)C6)nc4c3F)c12 (stereo not given) + COC1C(OC(N)=O)C(O)C(Oc2ccc3c(O)c(NC(=O)c4ccc(O)c(CC=C(C)C)c4)c(=O)oc3c2C)OC1(C)C ?
Reply | 94.9

Ask | # input compound: COc1cccc2c1C(=O)c1c(O)c3c(c(O)c1C2=O)CC(O)(C(=O)CO)CC3OC1CC(N)C(O)C(C)O1 (stereo not given) + Cc1cccc(N(C)C(=O)C2C(O)CCN2c2nc(C)cc(C(F)(F)F)c2C#N)c1 ; wanted: its viability, T/C
Reply | 75.5
